meta.source: DBAASP

system: Pseudomonas syringae pv. syringae DSM 10604; assay: ≥ marks a high value that may be exact or a test limit, other limits are often not marked, values filed in µg/mL are converted to µM
Reported MIC values for the following molecules.
Provide the reading as a plain figure in µM.

[
  {
    "molecule": "CC(C)C[C@H](NC(=O)[C@H](C)NC(=O)[C@H](CCCCN)NC(=O)[C@H](CCCCN)NC(=O)[C@H](C)NC(=O)[C@H](Cc1ccccc1)NC(=O)[C@H](CCCN=C(N)N)NC(=O)[C@@H](N)CC(C)C)C(=O)N[C@@H](CCCCN)C(=O)N[C@@H](CCCCN)C(=O)N[C@@H](CC(C)C)C(=O)N[C@@H](Cc1ccccc1)C(N)=O [LRFAKKALKKLF]",
    "MIC / µM": 0.171
  },
  {
    "molecule": "CC[C@H](C)[C@H](NC(=O)[C@H](CC(C)C)NC(=O)[C@H](CCCCN)NC(=O)[C@H](CCCCN)NC(=O)[C@H](CC(C)C)NC(=O)[C@@H](NC(=O)[C@H](CCCCN)NC(=O)[C@H](CCCCN)NC(=O)[C@@H](NC(=O)[C@@H](NC(=O)[C@H](CCCN=C(N)N)NC(=O)[C@@H](N)CC(C)C)[C@@H](C)CC)[C@@H](C)CC)[C@@H](C)CC)C(N)=O [LRIIKKILKKLI]",
    "MIC / µM": 0.338
  },
  {
    "molecule": "CC(C)[C@H](NC(=O)[C@H](C)NC(=O)[C@H](CCCN=C(N)N)NC(=O)[C@H](CCCCN)NC(=O)[C@H](C)NC(=O)[C@H](Cc1ccccc1)NC(=O)[C@H](CCCN=C(N)N)NC(=O)[C@H](C)NC(=O)[C@H](Cc1ccccc1)NC(=O)[C@H](CCCN=C(N)N)NC(=O)[C@H](CCCCN)NC(=O)[C@@H](N)CCCN=C(N)N)C(N)=O [RKRFARFAKRAV]",
    "MIC / µM": 26.6
  }
]

Please find the next molecule below.
[in] Recorded MIC for CC[C@H](C)[C@H](NC(=O)[C@H](CC(C)C)NC(=O)[C@H](CCCN=C(N)N)NC(=O)[C@H](CCCCN)NC(=O)[C@@H](NC(=O)[C@H](CC(C)C)NC(=O)[C@H](CCCCN)NC(=O)[C@H](CCCCN)NC(=O)[C@H](CCCN=C(N)N)NC(=O)[C@H](CCCCN)NC(=O)[C@H](CCCCN)NC(=O)[C@@H](N)CCCN=C(N)N)[C@@H](C)CC)C(N)=O [RKKRKKLIKRLI] , please?
[out] 0.0633

* * *

MIC, Micrococcus luteus ATCC 4698, per-entry values.
Provide the reading as a plain figure in µM.

[
  {
    "smiles-notation": "CC(C)C[C@H](NC(=O)[C@H](CC(C)C)NC(=O)[C@H](CCCCN)NC(=O)[C@H](CO)NC(=O)[C@H](CC(C)C)NC(=O)[C@H](C)NC(=O)[C@H](CCCCN)NC(=O)[C@H](Cc1ccccc1)NC(=O)[C@H](CC(C)C)NC(=O)[C@H](C)NC(=O)CNC(=O)[C@H](CC(C)C)NC(=O)[C@@H](N)Cc1ccccc1)C(=O)O",
    "MIC, µM": 2.11
  }
]

Please find the next compound below.
[in] Give recorded MIC with Micrococcus luteus ATCC 4698 for the following compound: CC(C)C[C@@H]1NC(=O)[C@H](CCCN=C(N)N)NC(=O)[C@H](Cc2cnc[nH]2)NC(=O)[C@H](Cc2c[nH]c3ccccc23)NC(=O)CNC(=O)CNC(=O)[C@@H](N)CSSC[C@@H](C(=O)O)NC(=O)[C@H](CCCN=C(N)N)NC1=O
[out] 28
